Assay: Shake-flask liquid distribution ratio (Kd), Hexane:Water:Buffer 10:9:1 solvent system
Format: physicochemical
Settings: pH 6.0, Aug. 5, 2008
measured_metric: THIAA K Value
Answer with the value's number alone.

CC(C)CCC(=O)[C@]1(O)C(O)=C(C(=O)C(C)C)C(=O)[C@H]1CCC(C)C :: 1.5
CC(C)CCC(=O)[C@]1(O)C(O)=C(C(=O)CC(C)C)C(=O)[C@H]1CCC(C)C :: 3.3
CC(C)CCC(=O)[C@@]1(O)C(O)=C(C(=O)C(C)C)C(=O)[C@H]1CCC(C)C :: 0.9
CCC(C)C(=O)C1=C(O)C(O)(C(=O)CCC(C)C)C(CCC(C)C)C1=O (stereo not drawn) [TH3, trans tetra ad-isoalpha acid] :: 5.5

Fill blank: measured THIAA K Value of the compound CCC(C)C(=O)C1=C(O)[C@@](O)(C(=O)CCC(C)C)[C@H](CCC(C)C)C1=O (single isomer, unassigned; (+)) is ____.
5.5

====

Test: Shake-flask liquid distribution ratio (Kd), Hexane:Water:Buffer 10:9:1 solvent system
Assay type: physicochemical
Settings: pH 5.5, Aug. 5, 2008
measured_metric: THIAA K Value
Form rule: numeric answer, no unit written next to it.

Study these solved cases before continuing.
CCC(C)C(=O)C1=C(O)C(O)(C(=O)CCC(C)C)C(CCC(C)C)C1=O (stereo not drawn) [TH3, trans tetra ad-isoalpha acid] :: 17.8
CC(C)CCC(=O)[C@@]1(O)C(O)=C(C(=O)C(C)C)C(=O)[C@H]1CCC(C)C [TH2] :: 2.5

Need THIAA K Value of CC(C)CCC(=O)[C@]1(O)C(O)=C(C(=O)C(C)C)C(=O)[C@H]1CCC(C)C [TH1] , thanks.
4.2

Next record, please: CC(C)CCC(=O)[C@]1(O)C(O)=C(C(=O)CC(C)C)C(=O)[C@H]1CCC(C)C [TH5]
9.5

Also check CCC(C)C(=O)C1=C(O)[C@@](O)(C(=O)CCC(C)C)[C@H](CCC(C)C)C1=O (single isomer, unassigned; (+)) [TH4]
16.1

====

Test: Shake-flask liquid distribution ratio (Kd), Hexane:Water:Buffer 10:9:1 solvent system
Format: physicochemical
Conditions: pH 5.6, Aug. 5, 2008
measured_metric: THIAA K Value
// print number alone

CC(C)CCC(=O)[C@@]1(O)C(O)=C(C(=O)C(C)C)C(=O)[C@H]1CCC(C)C [TH2] :: 1.8
CC(C)CCC(=O)[C@]1(O)C(O)=C(C(=O)C(C)C)C(=O)[C@H]1CCC(C)C [TH1] :: 3.0
CCC(C)C(=O)C1=C(O)[C@@](O)(C(=O)CCC(C)C)[C@H](CCC(C)C)C1=O (single isomer, unassigned; (+)) [TH4] :: 11.0
CC(C)CCC(=O)[C@]1(O)C(O)=C(C(=O)CC(C)C)C(=O)[C@H]1CCC(C)C [TH5] :: 6.6

# input for lookup
Fill in the blank: the reported THIAA K Value of CCC(C)C(=O)C1=C(O)C(O)(C(=O)CCC(C)C)C(CCC(C)C)C1=O (stereo not drawn) [TH3, trans tetra ad-isoalpha acid] is ____.
11.4

====

Quick list: THIAA K Value per entry.
Experiment: Shake-flask liquid distribution ratio (Kd), Hexane:Water:Buffer 10:9:1 solvent system
Assay type: physicochemical
Settings: pH 4.9, Aug. 5, 2008
Answer field: number only, no words.

Record excerpt, results attached:
CC(C)CCC(=O)[C@@]1(O)C(O)=C(C(=O)C(C)C)C(=O)[C@H]1CCC(C)C [TH2] :: 10.8
CCC(C)C(=O)C1=C(O)[C@@](O)(C(=O)CCC(C)C)[C@H](CCC(C)C)C1=O (single isomer, unassigned; (+)) [TH4] :: 55.6
CCC(C)C(=O)C1=C(O)C(O)(C(=O)CCC(C)C)C(CCC(C)C)C1=O (stereo not drawn) [TH3, trans tetra ad-isoalpha acid] :: 60.3
CC(C)CCC(=O)[C@]1(O)C(O)=C(C(=O)C(C)C)C(=O)[C@H]1CCC(C)C [TH1] :: 16.5

Could you now consider this next compound?
Which THIAA K Value is reported for this compound? CC(C)CCC(=O)[C@]1(O)C(O)=C(C(=O)CC(C)C)C(=O)[C@H]1CCC(C)C [TH5]
32.8
